# measured.target: T1, rat amylin 3(a) receptor (rat calcitonin(a) receptor + rat RAMP3) (rat, UniProt P32214 25-516; Q9JJ73 23-147)
# T1 sequence (looked up) 1: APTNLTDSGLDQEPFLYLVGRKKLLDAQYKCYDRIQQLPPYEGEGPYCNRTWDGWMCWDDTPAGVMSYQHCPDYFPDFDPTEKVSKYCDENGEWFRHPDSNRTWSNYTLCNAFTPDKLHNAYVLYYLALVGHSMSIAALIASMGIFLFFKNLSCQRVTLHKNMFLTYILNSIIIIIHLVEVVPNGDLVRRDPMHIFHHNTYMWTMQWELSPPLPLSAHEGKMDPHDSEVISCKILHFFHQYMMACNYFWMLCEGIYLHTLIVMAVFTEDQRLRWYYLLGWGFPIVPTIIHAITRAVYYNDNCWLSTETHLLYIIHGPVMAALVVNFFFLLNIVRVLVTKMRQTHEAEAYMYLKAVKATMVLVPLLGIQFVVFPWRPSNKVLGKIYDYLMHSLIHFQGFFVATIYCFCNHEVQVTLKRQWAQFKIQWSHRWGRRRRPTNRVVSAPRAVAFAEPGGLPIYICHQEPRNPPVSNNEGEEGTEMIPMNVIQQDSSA
# T1 sequence (looked up) 2: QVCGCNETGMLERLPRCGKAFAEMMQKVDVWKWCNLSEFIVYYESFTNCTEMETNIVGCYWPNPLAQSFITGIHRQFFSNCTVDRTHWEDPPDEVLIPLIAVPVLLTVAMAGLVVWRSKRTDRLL
# method.description: cell-based or functional assay
Starred links: 1 amine or outer side, 2 acyl side, 3 side chain; linkers in the order of their positions; H or OH if unused. Positions of bridges follow the written chain, without caps; N, C: chain ends. Non-standard residues stand in square brackets, D forms with d. *: point of attachment. C20 diacid = O=C(O)CCCCCCCCCCCCCCCCCCC(=O)*; 19‑carboxyheptadecanoyl = not defined here; C18 diacid = O=C(O)CCCCCCCCCCCCCCCCC(=O)*; γGlu = O=C(O)[C@H](CCC(=O)[*:2])N[*:1]; AEEA = NCCOCCOCC(=O)O
observed.property: Amylin receptor rat EC50 (nM)
Answers are plain numbers, in nM.

Consider the worked cases shown below.
{C18 diacid-γGlu}-HCNTATCATQRLAEFLHHSSNNFGPILPPTNVGSNTY-NH2 (disulfide 2-7; not fully specified; printed as N-alpha-[(S)-4-Carboxy-4-(17-carboxyheptadecanoylamino)butyryl]-[His1,Glu14,His17]-pramlintide) [N-alpha-[(S)-4-Carboxy-4-(17-carboxyheptadecanoylamino)butyryl]-[His1,Glu14,His17]-pramlintide] | 0.015
{C20 diacid-γGlu}-EKCNTATCATQRLAEFLHHSSNNFGPILPPTNVGSNTY-NH2 (disulfide 3-8; not fully specified; printed as N-alpha-[(S)-4-Carboxy-4-(19-carboxynonadecanoylamino)butyryl]-Glu-[Glu14,His17]-pramlintide) [N-alpha-[(S)-4-Carboxy-4-(19-carboxynonadecanoylamino)butyryl]-Glu-[Glu14,His17]-pramlintide] | 0.476

Next binder, Amylin receptor rat EC50 to be filled in.
Return reported Amylin receptor rat EC50; argument: {19‑carboxyheptadecanoyl-γGlu-AEEA-AEEA}-[dR][dR]KCNTATCATQRLAEFLHRSSNNFGPILPPTNVGSNTY-NH2 (disulfide 4-9; reading uncertain; also: printed as N-alpha-[2-(2-{2-[2-(2-{2-[(S)-4-Carboxy-4-(19-carboxyheptadecanoylamino)butyrylamino]ethoxy}ethoxy)acetylamino]ethoxy}ethoxy)acetyl]-D-Arg-D-Arg-[Glu14,His17,Arg18]-pramlintide)
0.132

Recorded values, source patent US20130005646A1.
